System: ATP;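 note: ATP exposure 15 min at 22 °C before imaging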
Assay: switch fluorescence ratio, 500 uM ATP over buffer (Cy3 cluster intensity, sum of 5 cycles each) (fold (ratio)); higher = stronger signal-on switching upon ATP binding; sequences stand for … in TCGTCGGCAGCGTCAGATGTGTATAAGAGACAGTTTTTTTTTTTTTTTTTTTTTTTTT…TC
Conditions: aptamer strand: ATP DNA aptamer (quencher-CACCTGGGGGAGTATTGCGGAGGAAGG + anchor), 100 nM annealed; ATP concentration: 500 uM
Field: switch fluorescence ratio. Provide a value for each of the sequences that follow.
Form field (numeric): enter value without unit.

Notebook: AAGGATTATG , switch fluorescence ratio read as 1

Form: sequence = GTTTCAAACG ; switch fluorescence ratio = 0.971

Reported switch fluorescence ratio ( CATGCTAAGT ) = 0.997

switch fluorescence ratio reported for this sequence ATGGGTAGAG : 1

Sample AGGGATGTCT ; switch fluorescence ratio observed: 1.02

Lab note: GAGATGTTT gave switch fluorescence ratio of 0.969

Lab note: AGCGGTATGC gave switch fluorescence ratio of 0.98

Entry AATTTGGTAT ; switch fluorescence ratio = 1.04

Query CTGCTGGGGC yields switch fluorescence ratio of 1.05

switch fluorescence ratio reported for this sequence TTTTAGGAAG : 0.994

Please fill in: switch fluorescence ratio reported for CTGAGCGGCT = 1.05

Lookup result for CCGGCGGATT ; measured switch fluorescence ratio: 1.08

Per the record, AATGAAGTGT has switch fluorescence ratio of 0.996

Lab note: ATCACTCGTA gave switch fluorescence ratio of 1.03

Measured switch fluorescence ratio of AGGGCGGCTT : 1

According to the records, this sequence ATCGCGTACT displays switch fluorescence ratio of 1.19

switch fluorescence ratio measured on CAGGGCGTTC = 0.986

Quick note, switch fluorescence ratio for TGTGTCATGT landed at 0.989

// switch fluorescence ratio value for TTCCGGGCCG : 1.03

Reported switch fluorescence ratio for GAGGATATAG was 1.03

Field switch fluorescence ratio (entry AGTGTTGTAT ) reads 1.05

switch fluorescence ratio reported for this sequence TCGGGGGGTG : 1.01

Item: GTCCTTTGCC | switch fluorescence ratio: 1.06

Value of measured switch fluorescence ratio for the entry TGCGCCTACC : 1.28

So, AGTATGGTGC ? Its switch fluorescence ratio was 0.991

switch fluorescence ratio recorded for this sequence, CGGTGGTTGG , is 1

TTTTAAGAT has a reported switch fluorescence ratio of 1.02

Measured switch fluorescence ratio, CGCGTACGGA : 0.989

Reported switch fluorescence ratio for AATTTGGACT was 1.03

switch fluorescence ratio in this record for TGATACTCGC : 1.18

Noted for TGGGGGTCAC : its switch fluorescence ratio reads 0.963

Input TGGGAGGTTC . Output switch fluorescence ratio: 1.03

The value of switch fluorescence ratio measured for the sequence AGATAACTTT turned out to be 1.02

Reported switch fluorescence ratio ( TGACGGGGAT ) = 1.25

Briefly, switch fluorescence ratio measured for GAAACTGGGG : 1.02

Looking up ACAATCCGGG , I found its switch fluorescence ratio recorded as 1.01

Input CATGTATTGG . Output switch fluorescence ratio: 0.991

Reported switch fluorescence ratio of GTTGGAGGGA : 1.01

// field: switch fluorescence ratio; key: GCCCTGCATG ; value = 1.01

Entry GGGTGCGATT , switch fluorescence ratio reported as 1.03

switch fluorescence ratio reported for this sequence TCGTAGAGGA : 0.995

// field: switch fluorescence ratio; key: AGACGGAACT ; value = 1.08

For this sequence ( GGAGGAAGG ), measured switch fluorescence ratio is 1.02

// switch fluorescence ratio value for TTAAAATCGC : 0.957

Input TTGACGTATA . Output switch fluorescence ratio: 1.96

Recorded switch fluorescence ratio (sequence TGGAGTGGGG ): 1

Input TTAGGCCGAG . Output switch fluorescence ratio: 1.04

get_value(item= ACGGGCTAAC , readout=switch fluorescence ratio) returns 1.09

Recorded switch fluorescence ratio (sequence ATAAGTCTGT ): 1.01

Given item GCAGGGGGGA , the value recorded as its switch fluorescence ratio is 1.04

For record TATCCCATAC the listed switch fluorescence ratio is 1.49

switch fluorescence ratio reported for this sequence TTCGGGATTT : 1.01

For reference, reported switch fluorescence ratio for TGGTTTTGGA stands at 0.976

switch fluorescence ratio reported for this sequence TGCTTTTTGT : 1.02

switch fluorescence ratio reported for this sequence CGGCAAGGCT : 1.22

For reference, reported switch fluorescence ratio for GGCAGCAAGT stands at 1.16

Recorded switch fluorescence ratio (sequence GTTTGGGAAA ): 0.988

Measured switch fluorescence ratio of AAAGGATAAG : 0.993

Entry ATATATGGAG ; switch fluorescence ratio = 1.01

The sequence listed as TAGTGCAAGA has a reported switch fluorescence ratio of 1.03

So, TAGGTTTGAA ? Its switch fluorescence ratio was 0.992

Per the records, this sequence ( ATTCGGGTTA ) has switch fluorescence ratio equal to 0.99

Form field switch fluorescence ratio, entry CGCACAGTCA : 1.06

The measured switch fluorescence ratio associated with ACGGTGATAT reads 1.03

Short answer for ACTGTTAGTG : switch fluorescence ratio was 1.02

The reported value for GCTGGAAAGG in terms of switch fluorescence ratio is 1.01

Notebook: TCGGAGTGGG , switch fluorescence ratio read as 1.03

Value of switch fluorescence ratio reported for the sequence TGGGTTGGCT is 1.01

# switch fluorescence ratio (sequence: TATGGGGTCA ) is 0.979

The sequence listed as TATTTTTTCG shows switch fluorescence ratio equal to 0.987

// TTACTTTGTT : switch fluorescence ratio value = 1.02

switch fluorescence ratio reading for AGATGGGTTT : 1.01

Entry CAACAGGGGT , switch fluorescence ratio reported as 1.14

# switch fluorescence ratio (sequence: AGTCTGTTTC ) is 0.999

The recorded switch fluorescence ratio for entry TGATTTTGTT equals 1.01

Recorded switch fluorescence ratio (sequence AATCATATGG ): 0.969

Entry AAAAATGCGG — recorded switch fluorescence ratio = 1.01

The recorded switch fluorescence ratio for ACATTATAAT is 1.04

Documented switch fluorescence ratio of TCTAAGGCCC : 0.986

Consider GAAGGCGGGA . Its measured switch fluorescence ratio is 1.03

Documented switch fluorescence ratio of TTGGGGTGGT : 0.993

// switch fluorescence ratio lookup, sequence = AATATAGGCG , result: 1.04

Quick note, switch fluorescence ratio for TGTGGGGAGG landed at 0.969

switch fluorescence ratio in this record for ATGAAGGGAT : 0.997

For this sequence ( TAGTGGTCCA ), measured switch fluorescence ratio is 0.98

// switch fluorescence ratio value for AATGTATCGT : 0.978
